Parameter: IC50. Scope: all listed entries.
Tested on: SK-MEL-28
test_name: Cytotoxicity against human SK-MEL-28 cells after 72 hrs by MTT assay
Type: functional, cell-based
measurement_parameters: SK-MEL-28, 72 h
Give the value, in units of µM, as a plain number.

INSERT INTO measurements (record_smiles, unit_label, measured_number) VALUES
  ('CC(C)=CCC/C(C)=C/CC/C(C)=C/COc1ccc2ccc(=O)oc2c1', 'µM', 66);

Moving on to another molecule below.
Ask: Determine reported IC50 for "COc1cc(/C=C/C=O)ccc1OC/C=C(\C)CCC=C(C)C" ; test system: SK-MEL-28.
Reply: 28

---

Parameter: pIC50. Scope: all listed entries.
Test system: LoVo
test_name: Cytotoxicity against human LoVo cells after 72 hrs by MTT assay
Assay type: functional, cell-based
# pIC50 = -log10(concentration in molar units)

Examples from the recorded data:
INSERT INTO measurements (molecule, assayed_target, test_readout, measured_number) VALUES
  ('CC(C)=CCC/C(C)=C/COc1cc(O)c2c(c1)C(=O)c1cc(C)cc(O)c1C2=O', 'LoVo', 'pIC50', 4.85),
  ('CC(C)=CCC/C(C)=C/COc1ccc2ccc(=O)oc2c1 [AURAPTENE]', 'LoVo', 'pIC50', 4.18),
  ('CC(=O)c1ccc(O)cc1O', 'LoVo', 'pIC50', 4.01),
  ('O=C(O)c1ccc(O)cc1 [PARABEN]', 'LoVo', 'pIC50', 4.03),
  ('CC(C)=CCOc1ccc2ccc(=O)oc2c1 [7-PRENYLOXYCOUMARIN]', 'LoVo', 'pIC50', 4.09),
  ('CC(C)=CCOc1ccc2ccc(=O)oc2c1O', 'LoVo', 'pIC50', 4.04),
  ('COc1cc(/C=C/C=O)cc(OC)c1OCC=C(C)C', 'LoVo', 'pIC50', 4.51),
  ('COc1cc(/C=C/C(=O)O)ccc1O [FERULATE]', 'LoVo', 'pIC50', 4.02),
  ('O=c1ccc2ccc(O)cc2o1 [UMBELLIFERONE]', 'LoVo', 'pIC50', 4.01),
  ('CC(=O)c1c(O)cc(O)cc1O [2,4,6-TRIHYDROXYACETOPHENONE]', 'LoVo', 'pIC50', 4.05);

Ask: For the molecule "CC(=O)c1ccc(OC/C=C(\C)CCC=C(C)C)cc1O" , give its measured pIC50 value.
Reply: 4.42

Ask: For the molecule O=C(O)/C=C/c1ccc(O)cc1 [COUMARIC ACID] , give its measured pIC50 value.
Reply: 4.09

---

Parameter: pIC50. Scope: all listed entries.
Tested on: A549
test_name: Cytotoxicity against human A549 cells after 72 hrs by MTT assay
Type: functional, cell-based
measurement_parameters: A549, 72 h
# pIC50 = -log10(concentration in molar units)

Examples from the recorded data:
INSERT INTO results (record_smiles, assayed_target, measured_number) VALUES
  ('COc1cc(/C=C/C=O)ccc1OC/C=C(\C)CCC=C(C)C', 'A549', 5.30),
  ('CC(C)=CCOc1ccc(C(=O)/C=C/c2ccc(O)cc2)c(O)c1', 'A549', 4.18),
  ('COc1cc(/C=C/CO)ccc1OC/C=C(\C)CCC=C(C)C', 'A549', 4.54),
  ('COc1cc(/C=C/C=O)ccc1O', 'A549', 4.23);

Moving on to another compound below.
Ask: Determine reported pIC50 for "CC(C)=CCC/C(C)=C/COc1ccc2ccc(=O)oc2c1" ; test system: A549.
Reply: 4.09
